src = patent US6720346B2

- Target or system: human CDK4/cyclin D3 (Homo sapiens)
- Construct: made in house; host or cells: insect cells co-infected with baculovirus vectors
- Sequence (P11802 whole entry): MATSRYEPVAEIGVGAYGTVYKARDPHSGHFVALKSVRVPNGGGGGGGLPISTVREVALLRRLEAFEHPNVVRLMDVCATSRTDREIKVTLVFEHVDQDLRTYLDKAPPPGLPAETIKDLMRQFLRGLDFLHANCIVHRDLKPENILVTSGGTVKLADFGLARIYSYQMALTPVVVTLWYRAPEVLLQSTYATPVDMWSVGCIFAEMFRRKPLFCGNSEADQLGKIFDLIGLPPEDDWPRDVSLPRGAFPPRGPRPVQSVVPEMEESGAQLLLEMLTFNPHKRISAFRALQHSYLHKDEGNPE
- Sequence (P30281 1-264 partner limits assumed): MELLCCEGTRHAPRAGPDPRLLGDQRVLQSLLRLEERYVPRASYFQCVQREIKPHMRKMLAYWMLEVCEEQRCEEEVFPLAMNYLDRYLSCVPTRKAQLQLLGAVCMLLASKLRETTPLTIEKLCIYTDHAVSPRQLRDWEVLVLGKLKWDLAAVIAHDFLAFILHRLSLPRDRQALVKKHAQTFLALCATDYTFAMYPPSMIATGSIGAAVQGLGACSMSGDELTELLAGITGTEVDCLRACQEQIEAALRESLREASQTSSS
- Experiment summary: Inhibition of CDK4/cyclin D retinoblastoma kinase activity (Ki; % inhibition)
- Type: biochemical
- Conditions used: at 0.03 μM
Endpoint label: CDK4 % Inhibition at 0.03 μM (%)

INSERT INTO assay_data (compound, value_measured) VALUES
  ('COCCCNC(=O)c1ccc(Nc2nc(N)c(C(=O)c3c(F)cccc3F)s2)cc1', 11),
  ('Nc1nc(Nc2ccc(C(=O)Nc3ccc4c(c3)OCO4)cc2)sc1C(=O)c1c(F)cccc1F', 5),
  ('COCCN(C)C(=O)c1ccc(Nc2nc(N)c(C(=O)c3c(F)cccc3F)s2)cc1', 0),
  ('Nc1nc(Nc2ccc(C(=O)Nc3cccc(-c4cnco4)c3)cc2)sc1C(=O)c1c(F)cccc1F', 15),
  ('Cc1cc(NC(=O)c2ccc(Nc3nc(N)c(C(=O)c4c(F)cccc4F)s3)cc2)ccc1C(C)C', 12),
  ('Nc1nc(Nc2ccc(C(=O)NC3CCc4ccccc43)cc2)sc1C(=O)c1c(F)cccc1F (centres unmarked)', 18),
  ('CN(CCO)C(=O)c1ccc(Nc2nc(N)c(C(=O)c3c(F)cccc3F)s2)cc1', 7),
  ('CC(=O)Nc1ccc(NC(=O)c2ccc(Nc3nc(N)c(C(=O)c4c(F)cccc4F)s3)cc2)cc1', 14),
  ('COc1ccc(NC(=O)c2ccc(Nc3nc(N)c(C(=O)c4c(F)cccc4F)s3)cc2)cc1Cl', 3),
  ('Nc1nc(Nc2ccc(C(=O)Nc3ccc4ncccc4c3)cc2)sc1C(=O)c1c(F)cccc1F', 15),
  ('Nc1nc(Nc2ccc(C(=O)Nc3cccc(Cl)c3)cc2)sc1C(=O)c1c(F)cccc1F', 7),
  ('Nc1nc(Nc2ccc(C(=O)N3CCC4(CC3)OCCO4)cc2)sc1C(=O)c1c(F)cccc1F', 9),
  ('CC(C)CC(C)NC(=O)c1ccc(Nc2nc(N)c(C(=O)c3c(F)cccc3F)s2)cc1 (centres unmarked)', 9),
  ('CC(C)[C@@H](CO)NC(=O)c1ccc(Nc2nc(N)c(C(=O)c3c(F)cccc3F)s2)cc1', 7),
  ('Nc1nc(Nc2ccc(C(=O)NCC3CC3)cc2)sc1C(=O)c1c(F)cccc1F', 11),
  ('CCCCN(CCO)C(=O)c1ccc(Nc2nc(N)c(C(=O)c3c(F)cccc3F)s2)cc1', 4),
  ('Nc1nc(Nc2ccc(C(=O)NC3CCSC3=O)cc2)sc1C(=O)c1c(F)cccc1F (centres unmarked)', 20),
  ('Nc1nc(Nc2ccc(C(=O)N3CCC(CCO)CC3)cc2)sc1C(=O)c1c(F)cccc1F', 7),
  ('CN1CCN(C(=O)c2ccc(Nc3nc(N)c(C(=O)c4c(F)cccc4F)s3)cc2)CC1', 8),
  ('CCN(CC)CCN(CC)C(=O)c1ccc(Nc2nc(N)c(C(=O)c3c(F)cccc3F)s2)cc1', 8),
  ('Nc1nc(Nc2ccc(C(=O)NCCCN3CCCC3=O)cc2)sc1C(=O)c1c(F)cccc1F', 6),
  ('Cc1cccc(Cl)c1NC(=O)c1ccc(Nc2nc(N)c(C(=O)c3c(F)cccc3F)s2)cc1', 4),
  ('CN(C)C1CCN(C(=O)c2ccc(Nc3nc(N)c(C(=O)c4c(F)cccc4F)s3)cc2)C1 (centres unmarked) [Example G37]', 25),
  ('Nc1nc(Nc2ccc(C(=O)N3CCOCC3)cc2)sc1C(=O)c1c(F)cccc1F', '−2'),
  ('Nc1nc(Nc2ccc(C(=O)N3CCCC3)cc2)sc1C(=O)c1c(F)cccc1F', 6),
  ('CCN(CCO)C(=O)c1ccc(Nc2nc(N)c(C(=O)c3c(F)cccc3F)s2)cc1', 10),
  ('CN(Cc1cccnc1)C(=O)c1ccc(Nc2nc(N)c(C(=O)c3c(F)cccc3F)s2)cc1', 9),
  ('C=CCN1CCN(C(=O)c2ccc(Nc3nc(N)c(C(=O)c4c(F)cccc4F)s3)cc2)CC1', 14),
  ('Nc1nc(Nc2ccc(C(=O)N3CCCC(O)C3)cc2)sc1C(=O)c1c(F)cccc1F (centres unmarked)', 4),
  ('COC(=O)[C@H](C)NC(=O)c1ccc(Nc2nc(N)c(C(=O)c3c(F)cccc3F)s2)cc1', 18),
  ('Nc1nc(Nc2ccc(C(=O)NCc3ccccc3)cc2)sc1C(=O)c1c(F)cccc1F', 36),
  ('COC(CNC(=O)c1ccc(Nc2nc(N)c(C(=O)c3c(F)cccc3F)s2)cc1)OC', 11);
